Target Of Assay: P70S6K (T412E mutant) (Homo sapiens (Human), UniProt P23443, T412E)
Sequence (P23443 whole entry T412E): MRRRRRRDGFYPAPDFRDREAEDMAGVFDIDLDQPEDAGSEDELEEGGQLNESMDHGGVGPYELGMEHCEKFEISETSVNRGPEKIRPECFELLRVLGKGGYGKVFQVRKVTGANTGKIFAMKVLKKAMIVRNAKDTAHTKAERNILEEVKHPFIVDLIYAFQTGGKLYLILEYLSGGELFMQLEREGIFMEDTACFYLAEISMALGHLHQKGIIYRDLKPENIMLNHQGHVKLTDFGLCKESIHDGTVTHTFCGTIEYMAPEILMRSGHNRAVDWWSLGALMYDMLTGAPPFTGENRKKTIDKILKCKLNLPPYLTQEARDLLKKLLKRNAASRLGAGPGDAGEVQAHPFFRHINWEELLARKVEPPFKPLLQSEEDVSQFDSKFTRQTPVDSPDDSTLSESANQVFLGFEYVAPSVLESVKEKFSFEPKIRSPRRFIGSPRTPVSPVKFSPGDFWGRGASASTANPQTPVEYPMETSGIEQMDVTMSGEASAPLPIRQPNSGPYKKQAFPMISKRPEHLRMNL
Assay Remarks: P70S6K enzyme assay
Assay type: biochemical
Condition Parameters: read-out: IC50 p70S6K
Endpoint Label: IC50 (nM)

Structure As Smiles	Endpoint Label	Meas Value
NC(=O)c1c(N)ncnc1N1CCC(c2nc(-c3ccc(F)c(C(F)(F)F)c3)cn2C2CNC2)CC1	IC50	16
Nc1ncnc(N2CCC(c3nc(-c4ccc(F)c(C(F)(F)F)c4)cn3CCN3CCCC3)CC2)c1C(=O)O	IC50	135
COc1c(N)ncnc1N1CCC(c2nc(-c3ccc(F)c(C)c3)cn2CC2CNC2)CC1	IC50	0.26

I. C=Cc1c(N)ncnc1N1CCC(c2nc(-c3ccc(F)c(C(F)(F)F)c3)cn2CCN2CCC2)CC1
II. CCOc1c(N)ncnc1N1CCC(c2nc(-c3ccc(F)c(Cl)c3)cn2CCN2CCCC2)CC1
Exam item: Lowest IC50? choose I or II Please reply using the label of the selected record.
Marked response: II

1. NC(=O)c1c(N)ncnc1N1CCC(c2nc(-c3ccc(F)c(C(F)(F)F)c3)cn2CCN2CCCC2)CC1
2. N#Cc1c(N)ncnc1N1CCC(c2nc(-c3ccc(OC(F)F)cc3)cn2CCN2CCC2)CC1
Exam item: Lower IC50: 1 or 2 ? Answer format: the label of the selected item.
Marked response: 2

###

Target Of Assay: P70S6K (T412E mutant) (Homo sapiens (Human), UniProt P23443, T412E)
Assay Remarks: P70S6K enzyme assay
Type: biochemical
Condition Parameters: read-out: IC50 p70S6K
Endpoint Label: IC50 (nM)

Structure As Smiles	Unit Abbrev	IC50
CCc1c(N)ncnc1N1CCC(c2nc(-c3ccc(Cl)c(F)c3)cn2CCN2CCCC2)CC1	nM	2.6

P. Cc1cc(-c2cn(CCN(C)C(C)C)c(C3CCN(c4ncnc(N)c4C#N)CC3)n2)ccc1F
Q. Cn1c(-c2ccc(F)c(C(F)(F)F)c2)cnc1C1CCN(c2ncnc(N)c2Br)CC1
Exam item: Which item exceeds the other in IC50, P or Q ? Mark your selection by writing its label.
Marked response: Q

P. NC(=O)c1c(N)ncnc1N1CCC(c2nc(-c3ccc(F)c(F)c3)cn2CCN2CCCC2)CC1
Q. N#Cc1c(N)ncnc1N1CCC(c2nc(-c3ccccc3)cn2CCN2CCC2)CC1
Exam item: Could you tell me which of these two has the smaller IC50 figure? First: P Second: Q Give the chosen item's label as your response.
Marked response: Q
(Q: 5.7 nM, P: 14 nM)

A. CCOc1c(N)ncnc1N1CCC(c2nc(-c3ccc(F)c(C(F)(F)F)c3)cn2CCN(C)C)CC1
B. COc1cc(-c2cn(CCN3CCC3)c(C3CCN(c4ncnc(N)c4C#N)CC3)n2)ccc1F
Exam item: # return whichever of A and B has the smaller IC50 Field: selected label. Fill in the label of the entry you choose.
Marked response: B
(B: 1 nM, A: 2.6 nM)

1. NC(=O)c1c(N)ncnc1N1CCC(c2nc(-c3cccc(F)c3)cn2CCN2CCCC2)CC1
2. N#Cc1c(N)ncnc1N1CCC(c2nc(-c3ccc(F)c(C(F)(F)F)c3)cn2CCO)CC1
Exam item: In the pair 1 and 2 , the larger recorded IC50 belongs to which? Your answer should be the label attached to the chosen record.
Marked response: 1
(1: 26 nM, 2: 0.8 nM)

a. CCc1c(N)ncnc1N1CCC(c2nc(-c3ccc(F)c(F)c3)cn2CCN2CCC3(COC3)C2)CC1
b. N#Cc1c(N)ncnc1N1CCC(c2nc(C3CCCCC3)cn2CCN2CCC2)CC1
Exam item: Please indicate which has the smaller reported IC50: a , or b . Let me know the label of the one you choose.
Marked response: b
(b: 6 nM, a: 9 nM)

P. CCc1c(N)ncnc1N1CCC(c2nc(-c3ccc(F)c(C)c3)cn2CCN(CC)C(C)C)CC1
Q. CCc1c(N)ncnc1N1CCC(c2nc(-c3ccc(C(F)(F)F)c(F)c3)cn2CCN2CC[C@@H](F)C2)CC1
Exam item: When P and Q are compared, which has the higher number for IC50? I would appreciate it if you answered with the label of your choice.
Marked response: P
(P: 3.1 nM, Q: 1.7 nM)

###

Target Of Assay: His-AKT (Full Length) (Homo sapiens (Human), UniProt P31749)
Sequence (P31749 whole entry): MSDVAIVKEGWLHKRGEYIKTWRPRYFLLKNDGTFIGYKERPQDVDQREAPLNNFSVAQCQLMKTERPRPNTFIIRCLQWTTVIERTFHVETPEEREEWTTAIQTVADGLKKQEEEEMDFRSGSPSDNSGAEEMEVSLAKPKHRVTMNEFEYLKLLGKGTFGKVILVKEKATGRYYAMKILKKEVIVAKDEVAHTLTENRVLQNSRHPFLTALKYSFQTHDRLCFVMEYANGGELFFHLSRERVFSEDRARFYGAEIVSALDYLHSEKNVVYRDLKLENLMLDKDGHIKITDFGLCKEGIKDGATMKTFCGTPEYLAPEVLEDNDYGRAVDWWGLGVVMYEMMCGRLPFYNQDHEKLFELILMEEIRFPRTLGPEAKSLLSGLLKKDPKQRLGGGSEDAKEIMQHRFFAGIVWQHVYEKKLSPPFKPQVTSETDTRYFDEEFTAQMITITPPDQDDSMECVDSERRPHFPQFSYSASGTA
Assay Remarks: AKT enzyme assay
Type: biochemical
Condition Parameters: read-out: IC50 AKT
pIC50: −log10 of the molar value.
Endpoint Label: pIC50

Compound	pIC50
Nc1ncnc(N2CCC(c3nc(-c4ccc(C(F)(F)F)c(F)c4)cn3CCN3CCC3)CC2)c1C1CCC1 [Compound 280]	8.14
NC(=O)c1c(N)ncnc1N1CCC(c2nc(-c3ccsc3)cn2CCN2CCC2)CC1 [Compound 134]	5.72
Nc1ncnc(N2CCC(c3nc(-c4ccc(F)c(C(F)(F)F)c4)cn3CCN3CCC3)CC2)c1-c1cn[nH]c1 [Compound 98]	8.16
NC(=O)c1c(N)ncnc1N1CCC(c2nc(-c3cccc(C(F)(F)F)c3)cn2CCN2CCCC2)CC1 [Compound 335]	7.04
Nc1ncnc(N2CCC(c3nc(-c4ccc(F)c(C(F)(F)F)c4)cn3CCN3CCCC3)CC2)c1F [Compound 211]	7.64

1. CNCCn1cc(-c2ccc(F)c(C)c2)nc1C1CCN(c2ncnc(N)c2-c2cn[nH]c2)CC1 [Compound 162]
2. Nc1ncnc(N2CCC(c3nc(-c4ccc(F)c(C(F)(F)F)c4)cn3CCN3CCC3)CC2)c1Br [Compound 217]
Exam item: Endpoint returns whichever of 1 and 2 has the numerically higher pIC50. Write the label of whichever entry you select.
Marked response: 2

1. N#Cc1c(N)ncnc1N1CCC(c2nc(-c3ccsc3)cn2CCN2CCC2)CC1 [Compound 130]
2. Nc1ncnc(N2CCC(c3nc(-c4ccc(F)c(C(F)(F)F)c4)c[nH]3)CC2)c1Br [Compound 43]
3. CC(C)c1c(N)ncnc1N1CCC(c2nc(-c3ccc(F)c(C(F)(F)F)c3)cn2CCN2CCC2)CC1 [Compound 114]
4. FC(F)(F)c1cccc(-c2c[nH]c(C3CCN(c4ncncc4Br)CC3)n2)c1 [Compound 4]
Exam item: Order field: pIC50 | Direction: descending (largest first) Record the ranking as a list of labels in the requested order.
Marked response: 3, 1, 2, 4

P. Nc1ncnc(N2CCC(c3nc(-c4ccnc(C(F)(F)F)c4)cn3CCN3CCC3)CC2)c1OCC(F)(F)F [Compound 118]
Q. N#Cc1c(N)ncnc1N1CCC(c2nc(C3CCCCC3)cn2CCN2CCC2)CC1 [Compound 77]
R. Nc1ncnc(N2CCC(c3nc(-c4ccc(F)c(C(F)(F)F)c4)cn3CCN3CCC3)CC2)c1-c1ccc(C(=O)O)cc1 [Compound 224]
Exam item: Hey, quick one: sort these by pIC50, largest value first please. Return the labels ranked in the requested order, please.
Marked response: R, P, Q

###

Target Of Assay: His-AKT (Full Length) (Homo sapiens (Human))
Assay Remarks: AKT enzyme assay
Format: biochemical
Condition Parameters: read-out: IC50 (AKT enzyme)
Endpoint Label: pIC50
Just the number, please; pIC50 means minus log10 of the concentration in mol/L.

Exam item: Using the record for `Cc1cc(-c2cn(CCNC3CC3)c(C3CCN(c4ncnc(N)c4-c4cn[nH]c4)CC3)n2)ccc1F` , state its measured pIC50.
Marked response: 6.82

###

Target Of Assay: His-AKT (Full Length) (Homo sapiens (Human), UniProt P31749)
Assay Remarks: AKT enzyme assay
Format: biochemical
Condition Parameters: read-out: IC50 AKT
Endpoint Label: IC50 (nM)

P. N#Cc1c(N)ncnc1N1CCC(c2nc(-c3cnc(F)c(Cl)c3)cn2CCN2CCC2)CC1
Q. COCC(C)NCCn1cc(-c2ccc(F)c(C(F)(F)F)c2)nc1C1CCN(c2ncnc(N)c2C(N)=O)CC1 (stereo not drawn)
Exam item: Hi there! Just curious which has the higher IC50 between P and Q . Write the label of whichever entry you select.
Marked response: Q

1. CCOc1c(N)ncnc1N1CCC(c2nc(-c3ccc(F)c(C(F)(F)F)c3)cn2CCN(C)C)CC1
2. CCc1c(N)ncnc1N1CCC(c2nc(-c3cncc(C)c3)cn2CCN2CCC2)CC1
3. Cc1cc(-c2cn(CCN(C)C)c(C3CCN(c4ncnc(N)c4OC(C)C)CC3)n2)ccc1F
Exam item: Returns the items ordered by IC50, from maximum to minimum. I would appreciate it if you listed the labels in the requested order.
Marked response: 2, 1, 3

P. Nc1cc(N2CCC(c3nc(-c4ccc(F)c(F)c4)cn3CCN3CCCC3)CC2)ncn1
Q. CCNCCn1cc(-c2ccc(F)c(C(F)(F)F)c2)nc1C1CCN(c2ncnc(N)c2OC(C)C)CC1
Exam item: Would you kindly point out which of P and Q has the smaller IC50 figure? Reply with the label of the item you choose.
Marked response: Q
(Q: 0.52 nM, P: 63 nM)

1. NC(=O)c1c(N)ncnc1N1CCC(c2nc(-c3ccccc3)cn2CCN2CCC2)CC1
2. CCc1cc(-c2cn(CCN3CCC3)c(C3CCN(c4ncnc(N)c4C(N)=O)CC3)n2)ccn1
Exam item: For the pair 1 and 2 , which member has the lower IC50 number? Reply with the label of the item you choose.
Marked response: 2
(2: 450 nM, 1: 1900 nM)
